Would you kindly list TGI for each of these compounds?
test system: DMS 273 small cell lung; assay: NCI tumour cell line growth inhibition, 48 h

See these solved cases before continuing.
compound: O=[P+](O)c1ccsc1
assay-readout: TGI
recorded-value: > 100 µM

compound: COC(=O)c1cccn1C(=O)n1cccc1
assay-readout: TGI
recorded-value: > 100 µM

Now consider a different compound.
Kindly note: DMS 273 small cell lung, COC(=O)C(C(=O)C(=O)Nc1ccc([N+](=O)[O-])cc1[N+](=O)[O-])c1nc2ccc(Cl)cc2[nH]c1=O (stereo not drawn) , TGI value reported: > 100 µM

###

system: RXF-631 renal; assay: NCI tumour cell line growth inhibition, 48 h
assay-readout: TGI

molecule: CCOC(=O)N1CCC(=O)C(CNC23CC4CC(CC(C4)C2)C3)C1 (stereo not drawn)
TGI: > 100 µM
--
molecule: O=C(c1ccccc1)C1OC12C(=O)Nc1c(Cl)cc(Cl)cc12 (stereo not drawn)
TGI: > 100 µM

Kindly note: RXF-631 renal, Oc1ccc2ccccc2c1N=Nc1ccsc1 , TGI value reported: > 100 µM

###

test system: UACC-257 melanoma; test: NCI tumour cell line growth inhibition, 48 h
assay-readout: TGI

See these solved cases before continuing.
molecule: COc1cc(-c2cc(O)c(-c3ccc4ccccc4n3)c(=O)[nH]2)cc(OC)c1OC
recorded-value: > 100 µM

molecule: CN(/N=C/c1cccc2cccnc12)c1ccc(Cl)cc1[N+](=O)[O-]
recorded-value: > 100 µM

molecule: CN(C)CCNC(=O)c1cccc(N(C)C(=O)c2ccccc2)c1[N+](=O)[O-]
recorded-value: > 10 µM

Answer for every listed entry: what is its TGI? The entries follow.
1. CC(=O)O[C@H]1CC[C@@]2(C)C(=CC[C@@H]3[C@@H]2CC[C@]2(C)c4c(C)nn(-c5ccccc5)c4C[C@@H]32)C1
2. COC(=O)c1cc(O)c2cc3c(cc2c1-c1cc(OC)c(OC)c(OC)c1)OCO3
3. COc1cc(-c2cc(=O)c3c(O)c(CC=C(C)C)c(O)cc3o2)ccc1O
4. CCN(CC)CCCNCc1cc(-c2ccccc2)nc2ccccc12
5. O=c1[nH]c(=S)[nH]c2c1CN(CCCN1CCOCC1)CN2
6. COc1cc(NCCC2CCCCN2)c2ncccc2c1 (centres undefined)

## Output
1. > 100 µM
2. > 100 µM
3. > 50 µM
4. 18.3 µM
5. > 100 µM
6. 41.1 µM

###

system: NCI-H23 lung; assay: NCI tumour cell line growth inhibition, 48 h
assay-readout: TGI

molecule: C=CC(=O)Nc1cc(C)ccc1Nc1nc(Nc2cc(OC)ncc2C)ncc1C(F)(F)F
tgt: NCI-H23 lung
TGI: > 22.9 µM
//
molecule: CCOC(=O)C1(C(=O)OCC)OC(C)=NC1(C(=O)OC)C(=O)OC
tgt: NCI-H23 lung
TGI: > 100 µM
//
molecule: O=C1c2ccccc2-c2nnc3c(c21)-c1ccccc1C3
tgt: NCI-H23 lung
TGI: > 100 µM

Now consider a different molecule.
Reported TGI ( NCC1OC(n2cnc3c(N)ncnc32)CC1O (centres undefined) ) = > 100 µM

###

test system: DU-145 prostate; assay: NCI tumour cell line growth inhibition, 48 h; in the data active means GI50 below about 0.43 µM; inactive means the rest
Output constraint: value belongs to 1.0 = active, 0.0 = inactive

Consider the worked cases shown below.
chemical-string: O=C(COc1cc(O)c2c(=O)cc(-c3ccccc3)oc2c1)Nc1ccccc1C(F)(F)F
answer-label: 0.0

chemical-string: COCc1cc(C(=O)Nc2cc([C@H]3CC[C@@H](OC(=O)NC(C)C)C3)[nH]n2)n(C)n1
answer-label: 0.0

## Input Per the records of this test, what outcome belongs to CN(Cc1ccccc1)c1ccc(CO)c(Cl)c1 ?
## Output 0.0

## Input Per the records of this test, what outcome belongs to Nc1c(C(=O)Nc2cccc(F)c2)sc2nc3c(cc12)C(=O)CCC3 ?
## Output 1.0

###

Would you kindly list GI50 for each of these molecules?
test system: SK-OV-3 ovarian; assay: NCI tumour cell line growth inhibition, 48 h

Answer for every listed entry: what is its GI50? The entries follow.
1. NCCCCCCCn1c2c(c3ccccc3c1=O)C(=O)c1ccccc1-2
2. C#Cc1c(/C=C/C(=O)OCC)ccc2ccccc12
3. Fc1ccc2c(c1)c(-c1nc(-c3c[nH]c4ncccc34)cs1)cn2CCCCN1CCCCC1

## Output
1. 2.96 µM
2. 58.8 µM
3. 1.72 µM

###

system: K-562 leukemia; test: NCI tumour cell line growth inhibition, 48 h; in the data active = GI50 below about 0.43 µM; inactive = the rest
Output constraint: value belongs to true (1) for active, false (0) for inactive

Consider the worked cases shown below.
compound: O=C(NCCCO)c1cc(Cl)ccc1O
answer-label: false (0)
//
compound: CCC[CH2][Sn]1([CH2]CCC)[O]CC(CN(C)Cc2ccccc2)[O]1 (stereo unspecified)
answer-label: false (0)
//
compound: C=CC(=O)Nc1cc(C)ccc1Nc1nc(Nc2cc(OC)ncc2C)ncc1C(F)(F)F
answer-label: false (0)
//
compound: CNC(=O)c1ccccc1Nc1nc(Nc2cc(OC)c(OC)c(OC)c2)ncc1Br
answer-label: true (1)
//
compound: C=C1CCC2C3(C)COC(c4ccccc4)OC3CCC2(C)C1/C=C/C1=CCOC1=O (stereo unspecified)
answer-label: false (0)

## Input Per the records of this test, what outcome belongs to NCCOCCOCCNc1nc(-c2ccccc2)nc(N2CCN(c3ccccn3)CC2)n1 ?
## Output false (0)

## Input Per the records of this test, what outcome belongs to [N-]=[N+]=NCCCCCC(=O)OC(C(=O)c1ccccc1)c1cccc(OCC(=O)NCCOCCOCCNC(=O)CCCC[C@@H]2SC[C@@H]3NC(=O)N[C@@H]32)c1 (stereo partly specified) ?
## Output false (0)

## Input Per the records of this test, what outcome belongs to Nc1c(C(=O)Nc2cccc(F)c2)sc2nc3c(cc12)C(=O)CCC3 ?
## Output true (1)

## Input Per the records of this test, what outcome belongs to O=C1C=CC(=Nc2cc(Br)c(O)c(Br)c2)C=C1 ?
## Output false (0)

## Input Per the records of this test, what outcome belongs to COc1cc(C(=O)N2CCN(c3ncnc4ccccc34)CC2)c(N)cc1OCc1ccccc1 ?
## Output false (0)

## Input Per the records of this test, what outcome belongs to Cc1cc(N2CCOCC2)nc(N[C@@H]2CCC[C@H](Nc3ccnc4cc(Cl)ccc34)C2)n1 ?
## Output false (0)

## Input Per the records of this test, what outcome belongs to O=C(c1ccccc1)C(CN1CCCCC1)c1ccccc1 (stereo unspecified) ?
## Output false (0)

## Input Per the records of this test, what outcome belongs to CC(=O)OC(C)(C)/C(C)=C/C(=O)O[C@H]1C(=O)O[C@@H]2C[C@H]3[C@H](C)C(=O)C(O[C@@H]4O[C@H](CO)[C@@H](O)[C@H](O)[C@H]4O)=C[C@]3(C)[C@H]3[C@@H](O)[C@H](O)[C@@]4(C(=O)O)OC[C@]32[C@@H]14 ?
## Output false (0)

## Input Per the records of this test, what outcome belongs to COc1cc(NCCCN=C(N)NC(N)=NC(C)C)c2ncccc2c1 ?
## Output false (0)

## Input Per the records of this test, what outcome belongs to CCC(=C/[C@H](C)C/C=C/C(C)=C/[C@@H](C)C(=O)[C@@H](C)[C@H](O)[C@@H](C)CC)/C=C/[C@@H]1OC(=O)C=C[C@H]1C ?
## Output true (1)

## Input Per the records of this test, what outcome belongs to Clc1ccc(-c2c3c(nn2-c2ccccn2)CCc2ccccc2-3)cc1Cl ?
## Output false (0)

###

tested on: COLO 205 colon; assay: NCI tumour cell line growth inhibition, 48 h; in the data active = GI50 below about 0.43 µM; inactive = the rest
Output constraint: value belongs to active, inactive

Consider the worked cases shown below.
chemical-string: CNC(=O)c1ccccc1Nc1nc(Nc2cc(OC)c(OC)c(OC)c2)ncc1Br
answer-label: active
//
chemical-string: c1ccc(CN2COc3c(ccc4c3OCN(Cc3ccccc3)C4)C2)cc1
answer-label: inactive
//
chemical-string: CC(C)=CCC[C@](C)(O)[C@H]1CC[C@]2(C)[C@@H]1CC[C@@H]1[C@@]3(C)CC/C(=N/O)C(C)(C)[C@@H]3CC[C@]12C
answer-label: inactive

## Input Per the records of this test, what outcome belongs to Nc1c(C(=O)Nc2cccc(F)c2)sc2nc3c(cc12)C(=O)CCC3 ?
## Output active

## Input Per the records of this test, what outcome belongs to CCC/C(=N\NC(=S)N1CC2CCC(CC2)C1)c1ccccn1 ?
## Output active

## Input Per the records of this test, what outcome belongs to CC(=O)c1c(C)[nH]c(-c2nc3ccc(N4CCN(C)CC4)cc3[nH]2)c1-c1ccc(N(C)C)cc1 ?
## Output active

## Input Per the records of this test, what outcome belongs to C#CCSc1cc(Cl)c(C)cc1S(=O)(=O)Nc1nc2ccccc2o1 ?
## Output inactive
